Here we gather Ki data for Non-receptor tyrosine-protein kinase TYK2 (Homo sapiens, UniProt P29597) reported by several publications.

record smiles	Ki
CC1(C)CCC(=O)N1c1ccc(Nc2cc(-c3c(F)cccc3F)nc3c2C(=O)NC3)nc1	< 0.01 µM
CC1(C)CCCC(=O)N1c1ccc(Nc2cc(-c3c(F)cccc3F)nc3c2C(=O)NC3)nc1	< 0.01 µM
CNc1cc(Nc2nccc3nc(-c4c(Cl)cc(C#N)cc4Cl)[nH]c23)ncn1	0.0006 µM
C[C@@H](O)c1nc2cnc3[nH]ccc3c2n1[C@H]1CCCOC1	0.031 µM
Clc1cccc(Cl)c1-c1nc2ccnc(Nc3cc(N4CCCC4)ncn3)c2[nH]1	0.0005 µM
O=C(Nc1cc2cc(-c3c(Cl)cccc3Cl)ccc2cn1)C1CC1	0.042 µM
COc1ccc(Nc2cc(-c3c(F)cccc3C#N)nc3c2C(=O)NC3)nc1	< 0.01 µM
OC1CCN(c2cc(Nc3nccc4nc(-c5c(Cl)cccc5Cl)[nH]c34)ncn2)CC1	0.001 µM
O=C1NCc2nc(-c3c(F)cccc3F)cc(Nc3ccc(N4CCCC4)cn3)c21	< 0.01 µM
O=C1NCc2nc(-c3c(F)cccc3F)cc(Nc3ccc(N4C5COCC4C5)cn3)c21	< 0.01 µM
CC1(C)CN(c2ccc(Nc3cc(-c4c(F)cccc4F)nc4c3C(=O)NC4)nc2)CC[C@@H]1O	< 0.01 µM
CC1(C)OCCN(c2ccc(Nc3cc(-c4c(F)cccc4F)nc4c3C(=O)NC4)nc2)C1=O	< 0.01 µM
O=C1NCc2nc(-c3c(F)cccc3F)cc(Nc3ccc(N4CCOCC4=O)cn3)c21	< 0.01 µM
O=C1NCc2nc(-c3c(F)cccc3F)cc(Nc3ccc(F)cc3)c21	< 0.01 µM

###

pKi: −log10 of the molar value.
Here we gather pKi data for Non-receptor tyrosine-protein kinase TYK2 (Homo sapiens, UniProt P29597) reported by several publications.

record smiles	pKi
C[C@@H]1COCCN1c1ccc(Nc2cc(-c3c(F)cccc3F)nc3c2C(=O)NC3)nc1	> 8.00
C[C@@H](O)c1nc2cnc3[nH]ccc3c2n1[C@H]1CC[C@@H](NCC(F)(F)F)C1	7.70
CC1(c2ccc(Nc3nc(-c4c(F)cccc4F)nc4c3C(=O)NC4)cc2)COC1	> 8.00
CC(C)N1CCN(c2ccc(Nc3cc(-c4c(F)cccc4F)nc4c3C(=O)NC4)nc2)C(=O)C1	> 8.00
CCNC(=O)c1ccc(Nc2cc(-c3c(F)cccc3C#N)nc3c2C(=O)NC3)nc1	> 8.00
CN1CCN(C)[C@](C)(c2ccc(Nc3nc(-c4c(F)cccc4F)nc4c3C(=O)NC4)cc2)C1=O	> 8.00
O=C(Nc1cc2nc(-c3c(Cl)cccc3Cl)[nH]c2cn1)C1CC1	5.46
CC1(C)CCN(c2ccc(Nc3cc(-c4c(F)cccc4F)nc4c3C(=O)NC4)nc2)CC1	> 8.00
Cc1cc(Nc2nccc3nc(-c4c(Cl)cccc4Cl)[nH]c23)ncn1	9.40
C[C@H]1COC[C@H](C)N1c1ccc(Nc2cc(-c3c(F)cccc3F)nc3c2C(=O)NC3)nc1	> 8.00
C[C@@H](O)c1nc2cnc3[nH]ccc3c2n1[C@H]1CC[C@H](CC#N)CC1	9.40
O=C1NCc2nc(-c3c(F)cccc3F)cc(Nc3ccc(N4CCC[C@H](O)C4)cn3)c21	> 8.00
C[C@@H]1COC[C@@H](C)N1C(=O)c1ccc(Nc2cc(-c3c(F)cccc3F)nc3c2C(=O)NC3)cc1	> 8.00
O=C(Nc1nccc2cc(-c3c(Cl)cccc3Cl)oc12)C1CC1	7.51
O=C(Cc1ccc(Nc2nc(-c3c(F)cccc3F)nc3c2C(=O)NC3)cc1)NC1CNC1	> 8.00
Cc1cc(Nc2nccc3nc(-c4c(Cl)cc(C#N)cc4Cl)[nH]c23)ncn1	9.15
CC(=O)Nc1cc(N)c(C#N)c(-c2ccccc2)n1	< 5.72
CC(C)Oc1ccc(Nc2nc(-c3c(F)cccc3F)nc3c2C(=O)NC3)cc1	> 8.00
OCCN1CCN(c2cc(Nc3nccc4nc(-c5c(Cl)cccc5Cl)[nH]c34)ncn2)CC1	8.92
